Data credit: ChEMBL document CHEMBL5370684

Exercise: for every item that follows, state its recorded Emax.
EXPERIMENTAL TARGET: 5-hydroxytryptamine receptor 2A (Homo sapiens, UniProt P28223)
Sequence (P28223 whole entry, the tested form may be a part): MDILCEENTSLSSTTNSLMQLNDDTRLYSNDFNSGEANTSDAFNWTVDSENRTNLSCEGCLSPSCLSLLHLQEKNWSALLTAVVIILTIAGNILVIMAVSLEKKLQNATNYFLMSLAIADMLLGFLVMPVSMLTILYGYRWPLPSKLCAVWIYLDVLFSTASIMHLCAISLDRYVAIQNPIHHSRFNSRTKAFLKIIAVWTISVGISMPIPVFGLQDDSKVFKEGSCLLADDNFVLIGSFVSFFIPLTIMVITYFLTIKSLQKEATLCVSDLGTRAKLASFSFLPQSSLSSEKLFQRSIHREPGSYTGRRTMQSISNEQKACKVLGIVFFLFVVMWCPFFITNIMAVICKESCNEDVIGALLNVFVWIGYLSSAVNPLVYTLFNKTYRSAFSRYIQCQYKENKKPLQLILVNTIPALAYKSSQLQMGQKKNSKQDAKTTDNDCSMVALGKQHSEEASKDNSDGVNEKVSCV
PROTOCOL DETAILS: Agonist activity at RLuc-fused 5-HT2A (unknown origin) expressed in HEK293T cells co-transfected with mVenus-fused beta arrestin-2/GRK2 assessed as beta arrestin-2 recruitment at 0.1 to 10 uM incubated for 30 mins using coelenterazine h as a substrate by BRET assay relative to control
Type: functional, cell-based
SETTINGS: filed as agonist, dose 0.1-10 µM
Answers are plain numbers, in %.

Use the examples below as a reference point.
COc1cccc2[nH]cc(C3=CCCN(C)C3)c12	47.7
Clc1ccc2[nH]nc(C3=CCCNC3)c2c1	97
Cc1cccc2[nH]cc(C3=CCCNC3)c12	42
CN1CCC=C(c2c[nH]c3c(Cl)c(F)ccc23)C1	56.5
Fc1ccc2c(C3=CCCNC3)n[nH]c2c1	59.4
COc1cccc2[nH]cc(C3=CCCNC3)c12	51.8

Value lookup for Emax; key = Clc1ccc2[nH]cc(C3=CCCNC3)c2c1
77.3

====

EXPERIMENTAL TARGET: 5-hydroxytryptamine receptor 2A (Homo sapiens, UniProt P28223)
PROTOCOL DETAILS: Agonist activity at RLuc-fused 5-HT2A (unknown origin) expressed in HEK293T cells co-transfected with mVenus-fused beta arrestin-2/GRK2 assessed as beta arrestin-2 recruitment at 0.1 to 10 uM incubated for 30 mins using coelenterazine h as a substrate by BRET assay relative to control
Assay type: functional, cell-based
SETTINGS: dose 0.1-10 µM
Hi! Could you tag entries with Emax below 30% as Criterion met, and those at or above as Criterion not met? Much appreciated.

Cc1ccnc2[nH]cc(C3=CCCN(C)C3)c12	Criterion not met
CC(C)c1ccc2[nH]cc(C3=CCCNC3)c2c1	Criterion not met
COc1ccnc2[nH]cc(C3=CCCN(C)C3)c12	Criterion not met
C1=C(c2c[nH]c3cccc(-c4ccccc4)c23)CNCC1	Criterion met

From here, focus on the item given below.
Please let me know if CN1CCC=C(c2n[nH]c3cc(F)ccc23)C1 shows Emax below 30%.
Criterion met

====

EXPERIMENTAL TARGET: 5-hydroxytryptamine receptor 2A (Homo sapiens, UniProt P28223)
PROTOCOL DETAILS: Agonist activity at RLuc-fused 5-HT2A (unknown origin) expressed in HEK293T cells co-transfected with mVenus-fused beta arrestin-2/GRK2 assessed as beta arrestin-2 recruitment incubated for 30 mins using coelenterazine h as a substrate by BRET assay
Assay type: functional, cell-based
VALUE KIND: EC50 (µM)
Answers are plain numbers, in µM.

Fill in: EC50 of C1=C(c2c[nH]c3cccc(-c4ccccc4)c23)CNCC1 is ___
0.358

====

EXPERIMENTAL TARGET: 5-hydroxytryptamine receptor 2A (Homo sapiens, UniProt P28223)
PROTOCOL DETAILS: Agonist activity at 5-HT2A (unknown origin) expressed in HEK293T cells co-transfected with RLuc-fused Galphaq/GFP2/Gy9/Gbeta3 assessed as Gaq hetero trimeric G protein activation incubated for 30 mins using coelenterazine 400a as a substrate by BRET assay
Assay type: functional, cell-based
VALUE KIND: pEC50
Numbers only, as −log10 of the molar value.

# query: pEC50 | item C1=C(c2c[nH]c3cccc(-c4ccccc4)c23)CNCC1 | system: 5-hydroxytryptamine receptor 2A (Homo sapiens, UniProt P28223)
6.06

====

EXPERIMENTAL TARGET: UniProtKB P28223
PROTOCOL DETAILS: Agonist activity at 5-HT2A (unknown origin) expressed in HEK293T cells co-transfected with RLuc-fused Galphaq/GFP2/Gy9/Gbeta3 assessed as Gaq hetero trimeric G protein activation at 0.1 to 10 uM incubated for 30 mins using coelenterazine 400a as a substrate by BRET assay relative to control
Type: functional, cell-based
SETTINGS: filed as agonist, dose 0.1-10 µM
Quick rule for you: Emax under 90% gets rule met, anything else gets rule not met.

Here's an entry: CN1CCC=C(c2n[nH]c3c(Cl)ccc(F)c23)C1 . Is its Emax below 90%?
rule not met

====

EXPERIMENTAL TARGET: UniProtKB P28223
PROTOCOL DETAILS: Agonist activity at RLuc-fused 5-HT2A (unknown origin) expressed in HEK293T cells co-transfected with mVenus-fused beta arrestin-2/GRK2 assessed as beta arrestin-2 recruitment at 0.1 to 10 uM incubated for 30 mins using coelenterazine h as a substrate by BRET assay relative to control
Format: functional, cell-based
SETTINGS: filed as agonist, dose 0.1-10 µM
Answer each item with its documented Emax.
One number for each entry, in %.

Example entries begin here.
COc1cccc2[nH]nc(C3=CCCNC3)c12	75.9
Fc1ccc2[nH]nc(C3=CCCNC3)c2c1	96
Fc1ccc(Cl)c2[nH]nc(C3=CCCNC3)c12	72.7
CN1CCC=C(c2n[nH]c3c(Cl)cc(F)cc23)C1	88.5

Proceed to the following item.
For the molecule shown here, CN1CCC=C(c2n[nH]c3c(Cl)ccc(F)c23)C1 , give the reported Emax.
50.9

====

EXPERIMENTAL TARGET: 5-hydroxytryptamine receptor 2A (Homo sapiens)
PROTOCOL DETAILS: Agonist activity at 5-HT2A (unknown origin) expressed in HEK293T cells co-transfected with RLuc-fused Galphaq/GFP2/Gy9/Gbeta3 assessed as Gaq hetero trimeric G protein activation at 0.1 to 10 uM incubated for 30 mins using coelenterazine 400a as a substrate by BRET assay relative to control
Format: functional, cell-based
SETTINGS: filed as agonist, dose 0.1-10 µM
Could you please report measured Emax for the items listed next?
Record the result as number plus unit.

Completed entries (count: 5):
COc1ccnc2[nH]cc(C3=CCCN(C)C3)c12	67.1%
C1=C(c2c[nH]c3cccc(-c4ccccc4)c23)CNCC1	59.6%
COc1cccc2[nH]cc(C3=CCCNC3)c12	96.1%
Cc1ccnc2[nH]cc(C3=CCCN(C)C3)c12	68.7%
Clc1ccc2[nH]cc(C3=CCCNC3)c2c1	102%

Give one value of Emax per listed compound.
1. CN1CCC=C(c2n[nH]c3cc(F)ccc23)C1
2. CN1CCC=C(c2c[nH]c3c(Cl)c(F)ccc23)C1
3. Fc1ccc2c(C3=CCCNC3)n[nH]c2c1

1. 47.1%
2. 89.2%
3. 79.4%

Each of the following entries comes with a recorded value; kindly state Emax for each.
1. Fc1ccc2[nH]nc(C3=CCCNC3)c2c1
2. CN1CCC=C(c2n[nH]c3c(Cl)cc(F)cc23)C1
3. Fc1ccc(Cl)c2[nH]nc(C3=CCCNC3)c12
4. Clc1ccc2[nH]nc(C3=CCCNC3)c2c1

1. 88.3%
2. 91.4%
3. 106%
4. 94.8%

Answer for every listed entry: what is its Emax? The entries follow.
1. CC(C)c1ccc2[nH]cc(C3=CCCNC3)c2c1
2. COc1cccc2[nH]nc(C3=CCCNC3)c12

58.8%
81.7%

Items follow; give Emax for each.
1. Cc1cccc2[nH]cc(C3=CCCNC3)c12
2. COc1cccc2[nH]cc(C3=CCCN(C)C3)c12

["85.7%", "91%"]
